Please respond with reported EC50 for every item in the list.
Molecular target: Sodium- and chloride-dependent taurine transporter (Homo sapiens) (UniProt P31641)
Sequence (P31641 whole entry, looked up): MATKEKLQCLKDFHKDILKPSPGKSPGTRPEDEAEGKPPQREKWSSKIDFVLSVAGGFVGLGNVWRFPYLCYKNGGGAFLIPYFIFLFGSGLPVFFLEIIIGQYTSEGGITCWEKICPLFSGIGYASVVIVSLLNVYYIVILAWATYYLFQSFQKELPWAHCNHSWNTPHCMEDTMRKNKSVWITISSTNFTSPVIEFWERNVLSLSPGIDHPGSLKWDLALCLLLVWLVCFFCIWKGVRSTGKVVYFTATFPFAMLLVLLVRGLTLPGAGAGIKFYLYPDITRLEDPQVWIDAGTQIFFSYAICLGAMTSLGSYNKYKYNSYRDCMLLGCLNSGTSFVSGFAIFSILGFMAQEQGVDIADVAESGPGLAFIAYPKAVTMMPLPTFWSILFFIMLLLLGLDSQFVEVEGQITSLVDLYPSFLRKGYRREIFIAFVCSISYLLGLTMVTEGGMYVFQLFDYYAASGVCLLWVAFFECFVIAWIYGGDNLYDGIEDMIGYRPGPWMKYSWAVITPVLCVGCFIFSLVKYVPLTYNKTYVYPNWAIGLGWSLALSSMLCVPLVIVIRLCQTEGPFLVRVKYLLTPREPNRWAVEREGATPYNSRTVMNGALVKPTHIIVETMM
Assay: SLC6A6 taurine transporter substrate activity, dose response, cell-based, membrane potential dye, HEK-293, SLC6A6 overexpression (AID 1794824)
Conditions: HEK-293 SLC6A6 OE, FLIPR membrane potential dye

Asked: Could you share what EC50 was measured for `NCCCC(=O)O` , tested on Sodium- and chloride-dependent taurine transporter (Homo sapiens) (UniProt P31641)?
Given back: 354 µM

Asked: Repeat for the following compound: `NCCS(=O)(=O)O`
Given back: 10 µM

Data credit: PubChem BioAssay AID1794824
